Tested on: HER2-overexpressing human breast cancer cell line SK-BR-3 cells
Test: Cytostatic activity against HER2-expressing cell line SK-BR-3 (CellTiter-Glo)
Type: cell-based
Conditions: Homo sapiens, 72 h, 3-day culture, read-out: SK-BR-3 cell growth inhibitory activity IC50 value
READOUT NAME: IC50 (nM)
Provide only the numeric value, understood in nM.

Noted for C=CC(=O)N1CCC[C@@H](n2nc(C(=O)Nc3nc4cc(F)ccc4o3)c3c(N)ncnc32)C1 [Comparative Example compound 1, reference compound] : its IC50 reads 1130

Item: `C=CC(=O)N1CCC[C@@H](n2nc(C(=O)Nc3cc(C)c(CC(=O)N(C)C)cc3C)c3c(N)ncnc32)C1` | IC50: 24
